Reference source for all entries: patent US7691877B2

Molecular target: TLR7 receptor (Homo sapiens, UniProt Q9NYK1)
Construct: PBL contain as a subpopulation plasmacytoid dendritic cells which are the natural interferon producing cells; endogenous in cells
Sequence (Q9NYK1 27-1049): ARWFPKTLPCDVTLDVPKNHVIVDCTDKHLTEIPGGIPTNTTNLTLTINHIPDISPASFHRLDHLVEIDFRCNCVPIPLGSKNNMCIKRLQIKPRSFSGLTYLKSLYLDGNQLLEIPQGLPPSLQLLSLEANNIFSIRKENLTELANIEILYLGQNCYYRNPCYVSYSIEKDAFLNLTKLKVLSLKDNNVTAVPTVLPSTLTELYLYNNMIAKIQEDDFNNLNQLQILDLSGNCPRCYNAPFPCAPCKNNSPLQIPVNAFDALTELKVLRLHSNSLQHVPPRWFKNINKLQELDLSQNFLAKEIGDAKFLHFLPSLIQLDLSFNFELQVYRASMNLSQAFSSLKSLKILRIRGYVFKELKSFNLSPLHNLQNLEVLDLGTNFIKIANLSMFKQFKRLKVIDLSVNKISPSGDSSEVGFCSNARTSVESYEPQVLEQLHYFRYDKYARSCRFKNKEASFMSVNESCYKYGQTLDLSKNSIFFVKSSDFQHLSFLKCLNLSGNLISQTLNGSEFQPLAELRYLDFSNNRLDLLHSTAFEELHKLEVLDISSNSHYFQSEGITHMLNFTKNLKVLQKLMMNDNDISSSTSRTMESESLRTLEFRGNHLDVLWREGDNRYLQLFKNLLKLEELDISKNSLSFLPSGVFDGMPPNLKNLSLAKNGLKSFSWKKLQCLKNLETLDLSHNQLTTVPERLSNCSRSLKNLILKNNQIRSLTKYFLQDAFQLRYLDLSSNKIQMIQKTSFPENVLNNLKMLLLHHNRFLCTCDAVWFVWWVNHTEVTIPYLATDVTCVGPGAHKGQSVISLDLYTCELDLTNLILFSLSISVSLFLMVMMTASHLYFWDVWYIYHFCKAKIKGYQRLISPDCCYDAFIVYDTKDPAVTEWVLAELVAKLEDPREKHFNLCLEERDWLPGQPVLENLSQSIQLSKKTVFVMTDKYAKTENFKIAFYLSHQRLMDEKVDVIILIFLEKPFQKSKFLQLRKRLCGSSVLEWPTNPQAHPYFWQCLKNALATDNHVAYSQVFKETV
Assay: PBL/HCV replicon bioassay
Conditions: concentration applied to PBL (24 h) giving 50% reduction of HCV replicon levels (luciferase) after transfer of PBL culture medium to Huh-7 replicon cells (48 h)
pEC50: −log10 of the molar value.
TEST_READOUT: pEC50

>>> df
                               smiles_entry  endpoint_value
0            Nc1nccc2c1[nH]c(=O)n2Cc1ccccc1            5.71
1  Nc1nc(-c2ncco2)cc2c1[nH]c(=O)n2Cc1ccccc1            6.62
2  Nc1nc(-c2ncc[nH]2)cc2c1[nH]c(=O)n2Cc1ccccc1            6.67

I: Nc1nc(C(F)(F)F)cc2c1[nH]c(=O)n2Cc1ccc(Br)cc1
II: Cc1ccc(Cn2c(=O)[nH]c3c(N)nc(-c4cnco4)cc32)cn1
-- ask Given the listed items, does I or II have the lesser reported pEC50? Provide the label of your selected option as the answer.
-- reply I

====

biological target: TLR7 receptor (Homo sapiens, UniProt Q9NYK1); construct: PBL contain as a subpopulation plasmacytoid dendritic cells which are the natural interferon producing cells; endogenous in cells; host or cells: peripheral blood lymphocytes (PBL), containing plasmacytoid dendritic cells; assay: PBL/HCV replicon bioassay; type: cell-based; conditions: concentration applied to PBL (24 h) giving 50% reduction of HCV replicon levels (luciferase) after transfer of PBL culture medium to Huh-7 replicon cells (48 h)
pEC50: −log10 of the molar value.
TEST_READOUT: pEC50

In [3]: df
Out[3]:
                                   molecule  endpoint_value
0  Nc1nc(C(F)(F)F)cc2c1[nH]c(=O)n2Cc1ccc(Cl)nc1 [Example 60]            6.35
1  Cc1cc2c([nH]c(=O)n2Cc2cccc(F)c2)c(N)n1 [Example 27]            6.34
2  CC(=O)c1cc2c([nH]c(=O)n2Cc2ccccc2)c(N)n1 [Example 36]            6.43
